Reported % INHIB is given for each of the following substances.
- System: human apolipoprotein B mRNA
- experiment.notes: Inhibition of human apolipoprotein B mRNA levels in HepG2 cells, quantitative real-time PCR
- Assay type: cell-based
- run.conditions: Table 1; HepG2 cells, 150 nM; averages from two experiments
In the oligonucleotide strings, read from the 5' end, every base follows the letter of its sugar. An asterisk marks phosphorothioate; unmarked linkages are phosphodiester. Other units and linkages are bracketed, terminal groups are in braces. A string of capitals states the bases alone. e = 2'-O-(2-methoxyethyl) (MOE); [5mC] = 5-methylcytosine; d = 2'-deoxy (DNA)

### Prompt I'd like to know its % INHIB. The substance in question is 147814 (antisense e[5mC]*e[5mC]*e[5mC]*eA*eA*dT*dA*dA*dG*dA*dT*dT*dT*dA*dT*eA*eA*e[5mC]*eA*eA) [compound 147814]
### Response 34%

### Prompt I'd like to know its % INHIB. The substance in question is 147810 (antisense eA*eT*eT*eT*e[5mC]*dA*dG*d[5mC]*dA*dT*dA*dT*dG*dA*dG*e[5mC]*e[5mC]*e[5mC]*eA*eT) [compound 147810]
### Response 0%

### Prompt I'd like to know its % INHIB. The substance in question is 147782 (antisense eG*e[5mC]*e[5mC]*eT*e[5mC]*dG*dG*d[5mC]*d[5mC]*dT*d[5mC]*dG*d[5mC]*dG*dG*e[5mC]*e[5mC]*e[5mC]*eT*eG) [compound 147782]
### Response 67%

### Prompt I'd like to know its % INHIB. The substance in question is 147820 (antisense eG*eA*eA*e[5mC]*eA*d[5mC]*dA*dT*dA*dG*d[5mC]*d[5mC]*dG*dA*dA*eT*eG*e[5mC]*e[5mC]*eG) [compound 147820]
### Response 100%

### Prompt I'd like to know its % INHIB. The substance in question is 147829 (antisense eT*eA*eT*eA*eT*d[5mC]*d[5mC]*d[5mC]*dA*dG*dG*dT*dT*dT*d[5mC]*e[5mC]*e[5mC]*e[5mC]*eG*eG) [compound 147829]
### Response 64%

* * *

- experiment.notes: Toxicity in C57BL/6 mice, two weeks (Example 48): liver enzyme levels, body, liver and spleen weight
- Format: in vivo, mouse
- run.conditions: 25 mg/kg i.p. twice a week
In the oligonucleotide strings, read from the 5' end, every base follows the letter of its sugar. An asterisk marks phosphorothioate; unmarked linkages are phosphodiester. Other units and linkages are bracketed, terminal groups are in braces. A string of capitals states the bases alone. e = 2'-O-(2-methoxyethyl) (MOE); [5mC] = 5-methylcytosine; d = 2'-deoxy (DNA)
Output Met for Liver Enzymes AST not less than 300 IU/L; output Not met otherwise.

[
  {
    "substance": "301012 (eG*e[5mC]*e[5mC]*eT*e[5mC]*dA*dG*dT*d[5mC]*dT*dG*d[5mC]*dT*dT*d[5mC]*eG*e[5mC]*eA*e[5mC]*e[5mC]) [compound 301012]",
    "group": "Not met"
  },
  {
    "substance": "233175 (antisense eG*eA*e[5mC]*e[5mC]*eT*dT*dG*dA*dG*dT*dA*dG*dA*dT*dT*e[5mC]*e[5mC]*eT*eG*eG) [compound 233175]",
    "group": "Met"
  },
  {
    "substance": "301027 (eG*e[5mC]*eT*e[5mC]*eA*d[5mC]*dT*dG*dT*dA*dT*dG*dG*dT*dT*eT*eT*eA*eT*e[5mC]; antisense) [compound 301027]",
    "group": "Met"
  },
  {
    "substance": "281625 (antisense eA*eG*eG*eT*eT*dA*d[5mC]*d[5mC]*dA*dG*d[5mC]*d[5mC]*dA*d[5mC]*dA*eT*eG*e[5mC]*eA*eG) [compound 281625]",
    "group": "Not met"
  }
]

Continue with the substance presented below.
### Prompt Hello, I need to know if 233172 (antisense eA*eT*eG*eG*eA*dA*dG*dA*d[5mC]*dT*dG*dG*d[5mC]*dA*dG*e[5mC]*eT*e[5mC]*eT*eA) [compound 233172] has measured Liver Enzymes AST not below 300 IU/L. Thanks!
### Response Not met

* * *

- experiment.notes: ob/ob mice (Example 50): cholesterol, lipid, triglyceride, liver enzyme and glucose levels
- Type: in vivo, mouse
- run.conditions: high fat high cholesterol diet, 50 mg/kg i.p. twice a week, six weeks
In the oligonucleotide strings, read from the 5' end, every base follows the letter of its sugar. An asterisk marks phosphorothioate; unmarked linkages are phosphodiester. Other units and linkages are bracketed, terminal groups are in braces. A string of capitals states the bases alone. e = 2'-O-(2-methoxyethyl) (MOE); [5mC] = 5-methylcytosine; d = 2'-deoxy (DNA)
Reported Liver Enzymes ALT is given for each of the following substances.
Could you give me the number in IU/L? Just the number is fine.

### Prompt I'd like to know its Liver Enzymes ALT. The substance in question is 116847 (antisense CTGCTAGCCTCTGGATTTGA; listed as DNA, chemistry not given here) [compound 116847]
### Response 607.5

### Prompt I'd like to know its Liver Enzymes ALT. The substance in question is 147483 (ATGTCAATGCCACATGTCCA; phosphorothioate, 2'-MOE wings, chemistry not fully specified) [compound 147483]
### Response 941.7

### Prompt I'd like to know its Liver Enzymes ALT. The substance in question is 147764 (eG*eT*e[5mC]*e[5mC]*e[5mC]*dT*dG*dA*dA*dG*dA*dT*dG*dT*d[5mC]*eA*eA*eT*eG*e[5mC]) [compound 147764]
### Response 835.0

### Prompt I'd like to know its Liver Enzymes ALT. The substance in question is 141923 (CCTTCCCTGAAGGTTCCTCC; listed as DNA, chemistry not given here) [compound 141923]
### Response 701.7

* * *

Reported % INHIB 50 nm is given for each of the following substances.
- Tested on: human apolipoprotein B mRNA
- experiment.notes: Inhibition of human apolipoprotein B mRNA levels in HepG2 cells, quantitative real-time PCR
- Format: cell-based
- run.conditions: Table 17 variable gap; HepG2 cells, 50 nM; averages from three experiments
Could you give me the number in %? Just the number is fine.

// worked examples, % INHIB 50 nm included
[
  {
    "substance": "308636 (GCCTCAGTCTGCTTCGCGCC; all C 5-methyl, all phosphorothioate, sugars by position not given here; further chemistry not fully specified) [compound 308636]",
    "measurement.label": "% INHIB 50 nm",
    "measured.value": 81
  },
  {
    "substance": "308645 (antisense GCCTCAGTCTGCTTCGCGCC; 4-10-6 2'-MOE gapmer, phosphorothioate, chemistry not fully specified) [compound 308645]",
    "measurement.label": "% INHIB 50 nm",
    "measured.value": 57
  },
  {
    "substance": "308648 (antisense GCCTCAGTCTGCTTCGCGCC; 6-10-4 2'-MOE gapmer, phosphorothioate, chemistry not fully specified) [compound 308648]",
    "measurement.label": "% INHIB 50 nm",
    "measured.value": 78
  },
  {
    "substance": "308633 (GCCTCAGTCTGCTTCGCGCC; 10-10-0 MOE gapmer, phosphorothioate, chemistry not fully specified) [compound 308633]",
    "measurement.label": "% INHIB 50 nm",
    "measured.value": 66
  },
  {
    "substance": "308661 (antisense AGTCTGCTTCGCGCCTTCTG; 2-10-8 2'-MOE gapmer, phosphorothioate, chemistry not fully specified) [compound 308661]",
    "measurement.label": "% INHIB 50 nm",
    "measured.value": 70
  }
]

### Prompt Missing value: % INHIB 50 nm, human apolipoprotein B mRNA, entry 308651 (antisense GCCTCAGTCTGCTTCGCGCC; 7-10-3 2'-MOE gapmer, phosphorothioate, chemistry not fully specified) [compound 308651] . Fill in?
### Response 87

### Prompt Missing value: % INHIB 50 nm, human apolipoprotein B mRNA, entry 308663 (antisense AGTCTGCTTCGCGCCTTCTG; 8-10-2 2'-MOE gapmer, phosphorothioate, chemistry not fully specified) [compound 308663] . Fill in?
### Response 44

### Prompt Missing value: % INHIB 50 nm, human apolipoprotein B mRNA, entry 308642 (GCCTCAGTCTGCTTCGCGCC; 3-10-7 MOE gapmer, phosphorothioate, chemistry not fully specified) [compound 308642] . Fill in?
### Response 85

### Prompt Missing value: % INHIB 50 nm, human apolipoprotein B mRNA, entry 308630 (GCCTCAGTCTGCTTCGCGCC; 0-10-10 MOE gapmer, phosphorothioate, chemistry not fully specified) [compound 308630] . Fill in?
### Response 69

### Prompt Missing value: % INHIB 50 nm, human apolipoprotein B mRNA, entry 308657 (antisense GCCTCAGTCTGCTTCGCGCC; 9-10-1 2'-MOE gapmer, phosphorothioate, chemistry not fully specified) [compound 308657] . Fill in?
### Response 61

### Prompt Missing value: % INHIB 50 nm, human apolipoprotein B mRNA, entry 308639 (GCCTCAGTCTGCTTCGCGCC; all C 5-methyl, all phosphorothioate, sugars by position not given here; further chemistry not fully specified) [compound 308639] . Fill in?
### Response 86

### Prompt Missing value: % INHIB 50 nm, human apolipoprotein B mRNA, entry 308654 (antisense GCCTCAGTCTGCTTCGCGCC; 8-10-2 2'-MOE gapmer, phosphorothioate, chemistry not fully specified) [compound 308654] . Fill in?
### Response 81
